assay-overview: Antiproliferative activity against mouse 32D cells expressing FLT3-D835Y assessed as cell growth inhibition
Type: functional, cell-based
value-kind: pIC50
pIC50 here is simply -log10 of the concentration when that concentration is written in mol/L.

If you can, please state the reported pIC50 value of `CCCNc1nc(Nc2ccc(C#N)cc2)ncc1C#CCCCNC(=O)[C@H](C)N(C)C(=O)/C=C/CN(C)C` .
9.49

----------
Test system: BaF3
assay-overview: cells
measurement-parameters: Mus musculus
Entries and their measured IC50 follow.
Numeric answer only, unit nM assumed.

COc1cc2c(Oc3ccc(NC(=O)Nc4cccc(C)c4)cc3F)ccnc2cc1OCCCN1CCOCC1 | 1.1

# evaluate next
If you can, please state the reported IC50 value of FC(F)(F)c1ccc(CNc2ccc(Cc3c[nH]c4ncc(Cl)cc34)cn2)cn1 [PEXIDARTINIB] .
97

# credit: ChEMBL document CHEMBL5149977
